# Study system: X-box-binding protein 1 (Homo sapiens)
# Protocol summary: ATG_Xbp1_CIS: Attagene CIS-FACTORIAL HepG2 Assay for human X-box Binding Protein 1 (XBP1) (AID 2282972)
# Experimental parameters: HepG2 XBP1 cis-element reporter, Attagene multiplex; actives raise or lower the signal
Calls of active or inactive are those of the source. The calls were made as follows: active = hit-call score of the fitted dose curve at least 0.9, where 1 is the maximum; inactive = score below 0.9.
In this exercise, the only acceptable responses are active, inactive

**Q:** // outcome(item) with item = `Nc1ccc(-c2ccc(N)c(Cl)c2)cc1Cl`
**A:** inactive

**Q:** // return assay outcome for `COC(=O)Cc1ccccc1`
**A:** inactive

**Q:** Record request — test call for `CCCCP(CCCC)CCCC`
**A:** inactive

**Q:** How did this test come out for `C=C(C)C(=O)[O][Sn]([CH2]CCC)([CH2]CCC)[CH2]CCC` ?
**A:** active

**Q:** // return assay outcome for `Oc1cccc2cccnc12`
**A:** inactive

**Q:** Each compound tested received a call. Report the one for `COc1ccc(C=O)cc1OC` .
**A:** inactive

**Q:** Hi, sorry to bother you, what did the test record for `CC(C)OC(=O)Nc1ccccc1` ?
**A:** inactive

* * *

# Read-out: ABC Transporter (ABCC2), ABCC2 (gene 1244)
# Protocol summary: LTEA_HepaRG_ABCC2: Life Technologies and Expression Analysis (LTEA) Assay for ABC Transporter (ABCC2) using HepaRG (AID 2283464)
# Experimental parameters: mRNA level, 48 h; actives raise or lower the signal
Active and inactive are the calls of the source. Rule for the calls: active = hit-call score of the fitted dose curve at least 0.9, where 1 is the maximum; inactive = score below 0.9.
Assign a class; possible classes are true (1) (active), false (0) (inactive)

The following compounds have reported results that may help.
{"columns": ["Compound", "Class name"],
 "data": [
  ["Oc1cccc2cccnc12", "false (0)"],
  ["O=C1C2(Cl)C3(Cl)C4(Cl)C(Cl)(Cl)C5(Cl)C3(Cl)C1(Cl)C5(Cl)C24Cl (stereo unspecified)", "true (1)"],
  ["C=C(C)C(=O)[O][Sn]([CH2]CCC)([CH2]CCC)[CH2]CCC", "true (1)"],
  ["CCCCCCCCc1ccc(O)cc1", "false (0)"],
  ["C[C@]12CCC(=O)C[C@@H]1CC[C@@H]1[C@@H]2CC[C@]2(C)[C@@H](O)CC[C@@H]12", "false (0)"]
]}

Next up:
**Q:** # lookup: test call for `CCC(C)(C)c1ccc(O)c(C(C)(C)CC)c1`
**A:** false (0)

* * *

# Read-out: Early growth response protein 1 (EGR1) transcription factor, EGR1 (gene 1958)
# Protocol summary: LTEA_HepaRG_EGR1: Life Technologies and Expression Analysis (LTEA) Assay for Early growth response protein 1 (EGR1) transcription factor using HepaRG (AID 2283490)
# Experimental parameters: mRNA level, 48 h; actives raise or lower the signal
Active and inactive are the calls of the source. Rule for the calls: active = hit-call score of the fitted dose curve at least 0.9, where 1 is the maximum; inactive = score below 0.9.

{"columns": ["Smiles code", "outcome"],
 "data": [
  ["CCCCCCCCc1ccc(O)cc1", "inactive"],
  ["CC(C)(C)c1cc(O)ccc1O", "inactive"],
  ["Oc1cccc2cccnc12", "inactive"]
]}

* * *

# Read-out: Urokinase-type plasminogen activator receptor (uPAR), PLAUR (gene 5329)
# Protocol summary: BSK_BE3C_uPAR: BioMAP Diversity Plus: BE3C Assay for Urokinase-type plasminogen activator receptor (uPAR) Biomarker Activity (AID 2283039);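 as to outcome: uPAR protein level measured by ELISA on the cells; cells exposed to compound for one day before measurement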
# Experimental parameters: primary human bronchial epithelial cells; actives raise or lower the signal
The source made the active and inactive calls. Rule for the calls: active = hit-call score of the fitted dose curve at least 0.9, where 1 is the maximum; inactive = score below 0.9.
Your response should consist of one outcome taken from Y for active, N for inactive

Answered examples (3):
{"columns": ["Compound", "Class name"],
 "data": [
  ["O=C(Nc1ccc2[nH]ccc2c1)c1cc2cc(F)ccc2n1Cc1cccc(F)c1", "Y"],
  ["CCCCC(CC)CO[N+](=O)[O-] (centres undefined)", "N"],
  ["C=CC(=O)OCCCCCC(C)C", "N"]
]}

**Q:** Would you mind telling me which call this test gave CC(=O)OC(c1ccccc1)C(Cl)(Cl)Cl (centres undefined) ?
**A:** N

**Q:** Recorded call for `NC(=S)Nc1ccccc1` ?
**A:** N

**Q:** Recorded test call requested for `Cc1ccccc1N`
**A:** N

**Q:** Check the results log: what was the call for `CCCCCCCCC(=O)NCc1ccc(O)c(OC)c1` ?
**A:** N

**Q:** Call for entry CCC(=O)C(CC(C)N(C)C)(c1ccccc1)c1ccccc1 (centres undefined) :
**A:** N

**Q:** What outcome does the record of this test show for `OCc1ccco1` ?
**A:** N

* * *

# Protocol summary: ATG_VDRE_CIS: Attagene CIS-FACTORIAL HepG2 Assay for human Vitamin D Receptor Element (VDRE) (AID 2282968)
# Experimental parameters: HepG2 VDRE cis-reporter transcription, actives raise or lower the signal
The source made the active and inactive calls. Rule for the calls: active = hit-call score of the fitted dose curve at least 0.9, where 1 is the maximum; inactive = score below 0.9.
# valid calls are Yes (active), No (inactive); nothing else

A selection of reference data follows.
{"columns": ["Compound", "Class name"],
 "data": [
  ["O=C(CCl)CCl", "Yes"],
  ["C1CCC(NC2CCCCC2)CC1", "No"],
  ["CC1(C)Cc2cccc(O)c2O1", "No"],
  ["c1ccc(N=NNc2ccccc2)cc1", "Yes"],
  ["O=C(Cl)c1ccc(Cl)cc1", "No"],
  ["CC(=O)C(Cl)C(=O)N(C)C (configuration not stated)", "No"],
  ["Clc1ccc(C2(Cn3cncn3)CC(Br)CO2)c(Cl)c1 (configuration not stated)", "Yes"],
  ["CN(C)P(=O)(N(C)C)N(C)C", "No"]
]}

**Q:** Which outcome did this test record for the compound `CCOP(=O)(CN(CCO)CCO)OCC` ?
**A:** No

**Q:** Which outcome was assigned to `Cl/C=C\C[N+]12CN3CN(CN(C3)C1)C2` in this test?
**A:** No

**Q:** Hi team, can someone confirm the assay call for `CCOP(=S)(OCC)SCSP(=S)(OCC)OCC` ?
**A:** Yes

**Q:** Query: recorded result category for `BrCCBr` in this test
**A:** No

**Q:** I'd appreciate the recorded outcome for `COc1ccccc1OC` from this test.
**A:** No

**Q:** What was the test verdict on CC(C#N)CCC#N (configuration not stated) ?
**A:** No

**Q:** Recorded test call requested for `CN(C)N=O`
**A:** No

**Q:** Can you look up the reported call for `CCC(C)(C)c1ccc(O)c(C(C)(C)CC)c1` for me?
**A:** Yes

**Q:** Can you look up the reported call for `C=CC#N` for me?
**A:** No

**Q:** What outcome does the record of this test show for `CCCCCCCCCl` ?
**A:** No

**Q:** Check the results log: what was the call for `O=[N+]([O-])c1c(Cl)c(Cl)cc(Cl)c1Cl` ?
**A:** No

**Q:** Dear all, I need the recorded test outcome for `Clc1nc(Cl)nc(Cl)n1` , thank you.
**A:** No

* * *

# Read-out: Caspase-3 (Homo sapiens)
# Protocol summary: LTEA_HepaRG_CASP3: Life Technologies and Expression Analysis (LTEA) Assay for cysteine-aspartic acid protease (CASP3) using HepaRG (AID 2283477)
# Experimental parameters: mRNA level, 48 h; actives raise or lower the signal
# Method: LTEA_HepaRG is a cell based, multiplexed-readout assay that uses HepaRG, a human liver cell line, with measurements taken at 48 hours after chemical dosing on a 96-well plate.LTEA_HepaRG_CASP3 is one of 102 assay component(s) measured in the LTEA HepaRG cell culture assay. It is a marker of Cell proliferation, survival, death.Data from the assay component LTEA_HepaRG_CASP3 was analyzed into 1 endpoint. […]
Active and inactive are the calls of the source. The calls were made as follows: active = hit-call score of the fitted dose curve at least 0.9, where 1 is the maximum; inactive = score below 0.9.
Metric name: AC50

Solved entries (count: 6):
{"columns": ["Smiles code", "AC50"],
 "data": [
  ["O=c1[nH]c(=O)[nH]c(=O)[nH]1", "inactive"],
  ["O=C(Nc1ccc2[nH]ccc2c1)c1cc2cc(F)ccc2n1Cc1cccc(F)c1", "inactive"],
  ["Cn1sc(Cl)cc1=O", "inactive"],
  ["Oc1cccc2cccnc12", "inactive"],
  ["CC(=O)[O][Hg][c]1ccccc1", "23.1 µM (active)"],
  ["ClCC(Cl)CCl", "inactive"]
]}

**Q:** Requested read-out: AC50. Entry: `O=[N+]([O-])c1ccc(O)c([N+](=O)[O-])c1`
**A:** 7 µM (active)

**Q:** Given the entry `C[C@]12CCC(=O)C[C@@H]1CC[C@@H]1[C@@H]2CC[C@]2(C)[C@@H](O)CC[C@@H]12` , report its measured AC50.
**A:** inactive

**Q:** Recorded AC50 for `C=CC(=O)OCCCCCC(C)C` , please?
**A:** inactive

**Q:** Look up AC50 for this compound: `COc1cc(-c2ccc(N)c(OC)c2)ccc1N`
**A:** inactive

**Q:** # get_value(readout='AC50', item= `CC(C)(C)CC(C)(C)c1ccc(O)cc1` )
**A:** inactive

**Q:** Fill in: AC50 of `C=C(C)C(=O)[O][Sn]([CH2]CCC)([CH2]CCC)[CH2]CCC` is ___
**A:** 5 µM (active)
